biological target: Muscarinic receptor 2 (Cavia porcellus) (UniProt Q8VH27); test: Antagonist activity at muscarinic M2 receptor in guinea pig left atrium assessed as effect on electrically-stimulated inotropic activity after 60 mins; format: functional, tissue-based; conditions: Cardiac atrium
Sequence (Q8VH27 as listed by the source): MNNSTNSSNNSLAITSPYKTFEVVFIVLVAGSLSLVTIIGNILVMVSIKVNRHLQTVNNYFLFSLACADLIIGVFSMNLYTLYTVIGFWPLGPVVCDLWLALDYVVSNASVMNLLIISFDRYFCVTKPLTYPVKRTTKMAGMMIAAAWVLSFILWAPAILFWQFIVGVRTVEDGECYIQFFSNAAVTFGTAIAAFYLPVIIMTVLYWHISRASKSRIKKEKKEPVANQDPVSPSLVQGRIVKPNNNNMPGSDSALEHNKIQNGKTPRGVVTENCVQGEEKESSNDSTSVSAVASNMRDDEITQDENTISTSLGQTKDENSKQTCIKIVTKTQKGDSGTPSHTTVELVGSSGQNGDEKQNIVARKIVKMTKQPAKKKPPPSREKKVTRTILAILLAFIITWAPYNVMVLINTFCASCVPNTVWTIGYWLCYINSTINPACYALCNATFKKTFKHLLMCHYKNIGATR
OUTCOME_MEASURE: pKb
// keep it numeric: no unit symbol after the value

Input line: // pKb lookup, key: C[N+]1(C)CCCC1c1ccc(C(O)(c2ccccc2)c2ccccc2)o1 (racemic)
Output line: 7.08

Input line: // pKb lookup, key: C[N+]1(C)CCCC1c1ccc(C(c2ccccc2)C2CCCCC2)o1 (mixture of isomers)
Output line: 6.21

Input line: // pKb lookup, key: CN1CCCC1c1ccc(C(c2ccccc2)C2CCCCC2)o1 (mixture of isomers)
Output line: 5.36

Input line: // pKb lookup, key: `C[N+]1(C)CCC[C@@H]1c1ccc([C@@](O)(c2ccccc2)C2CCCCC2)o1`
Output line: 6.85

Input line: // pKb lookup, key: CN1CCCC1c1ccc(C(O)(c2ccccc2)c2ccccc2)o1 (racemic)
Output line: 6.92

Input line: // pKb lookup, key: `CN1CCC[C@@H]1c1ccc([C@](O)(c2ccccc2)C2CCCCC2)o1`
Output line: 7.91

Input line: // pKb lookup, key: CN1CCCC1c1ccc(C(c2ccccc2)c2ccccc2)o1 (stereo unspecified)
Output line: 6.52

Input line: // pKb lookup, key: `CN1CCC[C@@H]1c1ccc([C@@](O)(c2ccccc2)C2CCCCC2)o1`
Output line: 6.23

Input line: // pKb lookup, key: `C[N+]1(C)CCC[C@H]1c1ccc([C@@](O)(c2ccccc2)C2CCCCC2)o1`
Output line: 5.92

Input line: // pKb lookup, key: `C[N+]1(C)CCC[C@H]1c1ccc([C@](O)(c2ccccc2)C2CCCCC2)o1`
Output line: 7.32

Input line: // pKb lookup, key: C[N+]1(C)CCCC1c1ccc(C(c2ccccc2)c2ccccc2)o1 (racemic)
Output line: 7.09
